Recorded pEC50 by entry
# System: C. elegans strain PE254
# assayInfo: C. elegans LSC qHTS viability assay, Anti-Infectives library primary screen (BG-fed, 384-well)
# Assay type: in vivo, Caenorhabditis elegans
# details: Caenorhabditis elegans; Fig. 3D; read-out: qHTS potency based on worm number
Structures can show the parent of a compound that is named as a salt.
Kindly note that pEC50 refers to -log10 of the concentration in mol/L and answer with the value alone.

Example cases with answers are listed next.
1. CC(C)C[C@H](NC(=O)CNC(=O)c1cc(Cl)ccc1Cl)B(O)O : 6.06
2. CC(C)C[C@H](NC(=O)CNC(=O)c1cc(Cl)ccc1Cl)B1OC(=O)C(CC(=O)O)(CC(=O)O)O1 [Ixazomib citrate] : 6.42
3. CC(C)C[C@H](NC(=O)[C@H](Cc1ccccc1)NC(=O)c1cnccn1)B(O)O : 6.23

Read the next record carefully.
Exam item: Value lookup for pEC50; key = `CC(C)C[C@H](NC(=O)[C@@H](NC(=O)c1cccc(-c2ccccc2)n1)[C@@H](C)O)B(O)O`
Marked response: 6.51

The origin of these recorded values is paper PMC10067442.
